Tested on: ACHN
Test: NCI one-dose SRB anti-proliferative screen
Format: cell-based
Conditions: Homo sapiens; ACHN (Renal Cancer), NCI one dose 10 µM; read-out: Cell growth inhibition %
For each of the compounds below, state its inhibition at 10 µM.
// unit must come after the numeric part

Before answering, review these 3 worked examples.
Compound	Assay result
COc1ccc(/C=C/C(=O)c2ccc(NC(=O)CSc3nnc(-c4ccc5[nH]c(-c6ccc(OC)c(OC)c6)nc5c4)o3)cc2)cc1 [Compound 7r]	2.15%
COc1ccc(-c2nc3cc(-c4nnc(SCC(=O)Nc5ccc(C(=O)/C=C/c6ccccc6)cc5)o4)ccc3[nH]2)cc1OC [Compound 7p]	3.66%
COc1cc(-c2nc3cc(-c4nnc(SCC(=O)Nc5ccc(C(=O)/C=C/c6ccc(Cl)cc6)cc5)o4)ccc3[nH]2)cc(OC)c1OC [Compound 7v]	3.22%

Could you report inhibition at 10 µM for every entry in the following list?
1. COc1ccc(/C=C/C(=O)c2ccc(NC(=O)CSc3nnc(-c4ccc5[nH]c(-c6ccc(Cl)cc6)nc5c4)o3)cc2)cc1 [Compound 7h]
2. O=C(CSc1nnc(-c2ccc3[nH]c(-c4ccc(Cl)cc4)nc3c2)o1)Nc1ccc(C(=O)/C=C/c2ccccc2)cc1 [Compound 7f]
3. COc1cc(-c2nc3cc(-c4nnc(SCC(=O)Nc5ccc(C(=O)/C=C/c6ccccc6)cc5)o4)ccc3[nH]2)cc(OC)c1OC [Compound 7u]
4. O=C(CSc1nnc(-c2ccc3[nH]c(-c4ccc(Cl)cc4)nc3c2)o1)Nc1ccc(C(=O)/C=C/c2ccc(Cl)cc2)cc1 [Compound 7g]
5. COc1ccc(-c2nc3cc(-c4nnc(SCC(=O)Nc5ccc(C(=O)/C=C/c6ccc(Cl)cc6)cc5)o4)ccc3[nH]2)cc1OC [Compound 7q]

1. 0%
2. 0%
3. 1.08%
4. 1.98%
5. 5.74%

###

System: SK-MEL-5
Assay: NCI one-dose SRB anti-proliferative screen
Type: cell-based
Conditions: Homo sapiens; SK-MEL-5, Melanoma; NCI one dose; read-out: Cell growth inhibition %
Procedure: The twenty-four synthesized compounds were submitted to the National Cancer Institute (NCI), USA. Eighteen hybrids 7a-h, 7k-r, 7u, and 7v were selected by NCI for one-dose assessment of their anti-proliferative activities at 10 µM dose by Sulforhodamine B colorimetric assay. The assessment was performed in 60 cell lines derived from nine tumor subpanels, comprising lung, leukemia, melanoma, colon, renal, CNS, prostate, breast, and ovarian cancer cell lines. […]
Note to self: values exactly at 2% are 1.0. So inhibition at 10 µM at or above 2% is 1.0, below is 0.0.

Compound	Discrete label
COc1ccc(/C=C/C(=O)c2ccc(NC(=O)CSc3nnc(-c4ccc5[nH]c(-c6ccc(OC)cc6)nc5c4)o3)cc2)cc1 [Compound 7m]	1.0
O=C(CSc1nnc(-c2ccc3[nH]c(-c4ccccc4)nc3c2)o1)Nc1ccc(C(=O)/C=C/c2ccc(Cl)cc2)cc1 [Compound 7b]	1.0
COc1ccc(-c2nc3cc(-c4nnc(SCC(=O)Nc5ccc(C(=O)/C=C/c6ccc(Cl)cc6)cc5)o4)ccc3[nH]2)cc1 [Compound 7l]	0.0
COc1cc(/C=C/C(=O)c2ccc(NC(=O)CSc3nnc(-c4ccc5[nH]c(-c6ccccc6)nc5c4)o3)cc2)cc(OC)c1OC [Compound 7e]	1.0
COc1ccc(/C=C/C(=O)c2ccc(NC(=O)CSc3nnc(-c4ccc5[nH]c(-c6ccccc6)nc5c4)o3)cc2)cc1OC [Compound 7d]	0.0

Quick check: does COc1ccc(/C=C/C(=O)c2ccc(NC(=O)CSc3nnc(-c4ccc5[nH]c(-c6ccccc6)nc5c4)o3)cc2)cc1 [Compound 7c] have inhibition at 10 µM greater than or equal to 2%?
1.0

Same thing, different compound: O=C(CSc1nnc(-c2ccc3[nH]c(-c4ccccc4)nc3c2)o1)Nc1ccc(C(=O)/C=C/c2ccccc2)cc1 [Compound 7a]
0.0

Would you kindly repeat that for COc1ccc(-c2nc3cc(-c4nnc(SCC(=O)Nc5ccc(C(=O)/C=C/c6ccccc6)cc5)o4)ccc3[nH]2)cc1 [Compound 7k] ?
1.0

Same lookup for COc1ccc(-c2nc3cc(-c4nnc(SCC(=O)Nc5ccc(C(=O)/C=C/c6ccc(OC)c(OC)c6)cc5)o4)ccc3[nH]2)cc1 [Compound 7n] , please.
1.0

For COc1ccc(-c2nc3cc(-c4nnc(SCC(=O)Nc5ccc(C(=O)/C=C/c6cc(OC)c(OC)c(OC)c6)cc5)o4)ccc3[nH]2)cc1 [Compound 7o] then?
0.0

###

What Caspase-9 Conc was measured for each of the following?
Test system: Caspase-9 in MCF-7 breast cancer cells
Test: Caspase-9 assay
Format: cell-based, human
Conditions: MCF-7 breast cancer cells
Report as: number unit

Molecule	System	Caspase-9 Conc
COc1cccc2c1C(=O)c1c(O)c3c(c(O)c1C2=O)C[C@@](O)(C(=O)CO)C[C@@H]3O[C@H]1C[C@H](N)[C@H](O)[C@H](C)O1 [Doxorubicin, reference compound]	Caspase-9 in MCF-7 breast cancer cells	16.200 ng/mL
COc1ccc(-c2nc3cc(-c4nnc(SCC(=O)Nc5ccc(C(=O)/C=C/c6ccccc6)cc5)o4)ccc3[nH]2)cc1	Caspase-9 in MCF-7 breast cancer cells	15.900 ng/mL
COc1ccc(/C=C/C(=O)c2ccc(NC(=O)CSc3nnc(-c4ccc5[nH]c(-c6ccc(OC)cc6)nc5c4)o3)cc2)cc1	Caspase-9 in MCF-7 breast cancer cells	13.900 ng/mL

Which Caspase-9 Conc is reported for this molecule? COc1ccc(-c2nc3cc(-c4nnc(SCC(=O)Nc5ccc(C(=O)/C=C/c6ccc(Cl)cc6)cc5)o4)ccc3[nH]2)cc1
15.100 ng/mL

###

System: OVCAR-5
Test: NCI one-dose SRB anti-proliferative screen
Assay type: cell-based
Conditions: Homo sapiens; OVCAR-5 (Ovarian Cancer), NCI one dose 10 µM; read-out: Cell growth inhibition %
Description: The twenty-four synthesized compounds were submitted to the National Cancer Institute (NCI), USA. Eighteen hybrids 7a-h, 7k-r, 7u, and 7v were selected by NCI for one-dose assessment of their anti-proliferative activities at 10 µM dose by Sulforhodamine B colorimetric assay. The assessment was performed in 60 cell lines derived from nine tumor subpanels, comprising lung, leukemia, melanoma, colon, renal, CNS, prostate, breast, and ovarian cancer cell lines. […]
Assignment: determine reported inhibition at 10 µM for the given compounds.
In your response, the unit should come after the numeric value.

Compound	inhibition at 10 µM
COc1cc(-c2nc3cc(-c4nnc(SCC(=O)Nc5ccc(C(=O)/C=C/c6ccccc6)cc5)o4)ccc3[nH]2)cc(OC)c1OC [Compound 7u]	0%
COc1ccc(/C=C/C(=O)c2ccc(NC(=O)CSc3nnc(-c4ccc5[nH]c(-c6ccc(Cl)cc6)nc5c4)o3)cc2)cc1 [Compound 7h]	0%
COc1ccc(-c2nc3cc(-c4nnc(SCC(=O)Nc5ccc(C(=O)/C=C/c6ccccc6)cc5)o4)ccc3[nH]2)cc1OC [Compound 7p]	0.55%
O=C(CSc1nnc(-c2ccc3[nH]c(-c4ccc(Cl)cc4)nc3c2)o1)Nc1ccc(C(=O)/C=C/c2ccccc2)cc1 [Compound 7f]	0%
COc1cc(-c2nc3cc(-c4nnc(SCC(=O)Nc5ccc(C(=O)/C=C/c6ccc(Cl)cc6)cc5)o4)ccc3[nH]2)cc(OC)c1OC [Compound 7v]	0.76%
O=C(CSc1nnc(-c2ccc3[nH]c(-c4ccc(Cl)cc4)nc3c2)o1)Nc1ccc(C(=O)/C=C/c2ccc(Cl)cc2)cc1 [Compound 7g]	0%
COc1ccc(/C=C/C(=O)c2ccc(NC(=O)CSc3nnc(-c4ccc5[nH]c(-c6ccc(OC)c(OC)c6)nc5c4)o3)cc2)cc1 [Compound 7r]	0%

# next compound below
May I ask what inhibition at 10 µM has been recorded for COc1ccc(-c2nc3cc(-c4nnc(SCC(=O)Nc5ccc(C(=O)/C=C/c6ccc(Cl)cc6)cc5)o4)ccc3[nH]2)cc1OC [Compound 7q] ?
4.8%

###

Test system: OVCAR-4
Assay: NCI one-dose SRB anti-proliferative screen
Assay type: cell-based
Settings: Homo sapiens; OVCAR-4, Ovarian Cancer; NCI one dose; read-out: Cell growth inhibition %
Assay metric: inhibition at 10 µM (%)
Answers are plain numbers, in %.

O=C(CSc1nnc(-c2ccc3[nH]c(-c4ccccc4)nc3c2)o1)Nc1ccc(C(=O)/C=C/c2ccccc2)cc1 0
O=C(CSc1nnc(-c2ccc3[nH]c(-c4ccccc4)nc3c2)o1)Nc1ccc(C(=O)/C=C/c2ccc(Cl)cc2)cc1 0
COc1ccc(-c2nc3cc(-c4nnc(SCC(=O)Nc5ccc(C(=O)/C=C/c6ccc(OC)c(OC)c6)cc5)o4)ccc3[nH]2)cc1 13.2
COc1cc(/C=C/C(=O)c2ccc(NC(=O)CSc3nnc(-c4ccc5[nH]c(-c6ccccc6)nc5c4)o3)cc2)cc(OC)c1OC 0.46
COc1ccc(-c2nc3cc(-c4nnc(SCC(=O)Nc5ccc(C(=O)/C=C/c6ccc(Cl)cc6)cc5)o4)ccc3[nH]2)cc1 0
COc1ccc(-c2nc3cc(-c4nnc(SCC(=O)Nc5ccc(C(=O)/C=C/c6ccccc6)cc5)o4)ccc3[nH]2)cc1 19.1
COc1ccc(/C=C/C(=O)c2ccc(NC(=O)CSc3nnc(-c4ccc5[nH]c(-c6ccccc6)nc5c4)o3)cc2)cc1OC 0
COc1ccc(/C=C/C(=O)c2ccc(NC(=O)CSc3nnc(-c4ccc5[nH]c(-c6ccc(OC)cc6)nc5c4)o3)cc2)cc1 6.89
COc1ccc(-c2nc3cc(-c4nnc(SCC(=O)Nc5ccc(C(=O)/C=C/c6cc(OC)c(OC)c(OC)c6)cc5)o4)ccc3[nH]2)cc1 0

Can you look up the measured inhibition at 10 µM of COc1ccc(/C=C/C(=O)c2ccc(NC(=O)CSc3nnc(-c4ccc5[nH]c(-c6ccccc6)nc5c4)o3)cc2)cc1 for me?
0
